Test system: Escherichia coli TOP10
ASSAY_NOTES: shrunken log2 fold change of peptide-encoding DNA abundance (4.5 h post-induction vs induction); higher = less antimicrobial activity (less host growth inhibition)
CONDITIONS: time post-induction: 4.5 h; library: site-saturation at positions 5, 18, 19, 20
MEASURE_NAME: shrunken log2 fold change
The reply should be a number, written without any unit.

RRIRDRPPRLPRPRPRPSWSPRP : -0.369
RRIRTRPPRLPRPRPRPKCFPRP : -0.384
RRIRCRPPRLPRPRPRPGWLPRP : 0.801
RRIRFRPPRLPRPRPRPIKSPRP : -0.271

Next:
Dear colleague, please send me the reported shrunken log2 fold change for RRIRRRPPRLPRPRPRPVTQPRP when you can. 0.197

---

System: Escherichia coli TOP10
ASSAY_NOTES: shrunken log2 fold change of peptide-encoding DNA abundance (4.5 h post-induction vs induction); higher = less antimicrobial activity (less host growth inhibition)
CONDITIONS: time post-induction: 4.5 h; library: site-saturation at positions 5, 18, 19, 20
Rule: shrunken log2 fold change under -0.07 gives -1, otherwise 1.

RRIRMRPPRLPRPRPRPEIGPRP : 1
RRIRQRPPRLPRPRPRPDVGPRP : 1
RRIRARPPRLPRPRPRPHKMPRP : 1
RRIRDRPPRLPRPRPRPRPVPRP : 1
RRIRGRPPRLPRPRPRPEDHPRP : 1

Entry RRIRCRPPRLPRPRPRPARMPRP : is its shrunken log2 fold change no less than -0.07? 1

Entry RRIRFRPPRLPRPRPRPCHYPRP : is its shrunken log2 fold change no less than -0.07? -1

Entry RRIRPRPPRLPRPRPRPVRRPRP : is its shrunken log2 fold change no less than -0.07? 1

Entry RRIRFRPPRLPRPRPRPGYLPRP : is its shrunken log2 fold change no less than -0.07? -1

---

Tested on: Escherichia coli TOP10;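 note: peptides expressed intracellularly from a pBAD plasmid library in pooled LB shake-flask culture, induced with 0.3% L-arabinose, DNA abundance read by NGS, three biological replicates, DESeq2 with apeglm shrinkage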
ASSAY_NOTES: shrunken log2 fold change of peptide-encoding DNA abundance (4.5 h post-induction vs induction); higher = less antimicrobial activity (less host growth inhibition)
CONDITIONS: time post-induction: 4.5 h; library: site-saturation at positions 5, 18, 19, 20
Parameter class (string): assigned from measured shrunken log2 fold change. Ranges: low-valued (below -0.2), mid-valued (-0.2 to below 0.01), high-valued (0.01 or more)

Observe how each entry below is paired with its result.
RRIRSRPPRLPRPRPRPCLDPRP : low-valued
RRIRFRPPRLPRPRPRPSARPRP : high-valued
RRIRRRPPRLPRPRPRPHNIPRP : mid-valued
RRIRERPPRLPRPRPRPSDRPRP : mid-valued
RRIRFRPPRLPRPRPRPAFKPRP : low-valued

Could you tell me which band RRIRARPPRLPRPRPRPHMAPRP belongs to? mid-valued

Could you tell me which band RRIRIRPPRLPRPRPRPKNMPRP belongs to? low-valued

Could you tell me which band RRIRLRPPRLPRPRPRPVWHPRP belongs to? mid-valued

Could you tell me which band RRIRYRPPRLPRPRPRPMCNPRP belongs to? low-valued

Could you tell me which band RRIRPRPPRLPRPRPRPTFIPRP belongs to? low-valued

Could you tell me which band RRIRRRPPRLPRPRPRPQENPRP belongs to? mid-valued

Could you tell me which band RRIRQRPPRLPRPRPRPYWVPRP belongs to? low-valued

Could you tell me which band RRIRYRPPRLPRPRPRPFCEPRP belongs to? low-valued

Could you tell me which band RRIRYRPPRLPRPRPRPSGQPRP belongs to? mid-valued

Could you tell me which band RRIRIRPPRLPRPRPRPYTTPRP belongs to? mid-valued

Could you tell me which band RRIRVRPPRLPRPRPRPVDWPRP belongs to? high-valued

Could you tell me which band RRIRIRPPRLPRPRPRPRHHPRP belongs to? low-valued

Could you tell me which band RRIRHRPPRLPRPRPRPFQKPRP belongs to? mid-valued

Could you tell me which band RRIRNRPPRLPRPRPRPLVRPRP belongs to? low-valued

Could you tell me which band RRIRNRPPRLPRPRPRPMFWPRP belongs to? high-valued

Could you tell me which band RRIRNRPPRLPRPRPRPFWEPRP belongs to? low-valued

Could you tell me which band RRIRTRPPRLPRPRPRPQHPPRP belongs to? high-valued
